Test System: Serine/threonine-protein kinase pim-1 (Homo sapiens)
Method Description: Enzymatic radiometric [Km ATP] KinaseProfiler LeadHunter assay, kinase: Pim-1, catalogue number: 14-573KP The assay has been performed by Eurofins Discovery.
Condition Set: ATP concentration 90.0 uM, Test compound concentration 10.0 uM
Outcome Measure: Activity (%)

Request: Would you kindly share the measured Activity for COc1ccc([C@H](Cc2nnn[nH]2)NC(=O)c2ncnc3[nH]ccc23)cc1 ?
Response: 99

Request: Could you do the same for CC(C)[C@H](Nc1ncnc2[nH]c(-c3cnn(C)c3C#N)cc12)c1ccc2c(n1)OCCO2 , please?
Response: 98

Request: Could you do the same for CC(C)[C@H](Nc1ncnc2[nH]ccc12)c1ccc2c(c1)S(=O)(=O)CCC2 , please?
Response: 91

---

Test System: UniProtKB P06241
Sequence (P06241 2-537 limits assumed): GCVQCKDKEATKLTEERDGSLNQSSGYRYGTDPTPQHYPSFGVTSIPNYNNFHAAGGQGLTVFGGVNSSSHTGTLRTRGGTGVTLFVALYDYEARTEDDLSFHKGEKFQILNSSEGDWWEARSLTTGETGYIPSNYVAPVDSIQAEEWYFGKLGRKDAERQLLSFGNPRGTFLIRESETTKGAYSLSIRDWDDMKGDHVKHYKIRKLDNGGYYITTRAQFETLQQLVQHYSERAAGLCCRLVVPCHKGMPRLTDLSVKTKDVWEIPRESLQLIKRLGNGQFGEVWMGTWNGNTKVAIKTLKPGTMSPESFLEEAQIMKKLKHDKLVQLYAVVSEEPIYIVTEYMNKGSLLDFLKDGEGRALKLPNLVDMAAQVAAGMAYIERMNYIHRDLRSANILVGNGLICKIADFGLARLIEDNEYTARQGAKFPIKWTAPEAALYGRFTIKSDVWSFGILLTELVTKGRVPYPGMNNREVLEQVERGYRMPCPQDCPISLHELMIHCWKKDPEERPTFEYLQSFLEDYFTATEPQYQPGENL
Method Description: Enzymatic radiometric [Km ATP] KinaseProfiler LeadHunter assay, kinase: Fyn, catalogue number: 14-441KP The assay has been performed by Eurofins Discovery.
Condition Set: ATP concentration 70.0 uM, Test compound concentration 10.0 uM
Outcome Measure: Activity (%)

Example compounds with recorded Activity:
Request: Would you kindly share the measured Activity for C[C@H](C(=O)O)[C@@H](NC(=O)c1ncnc2[nH]ccc12)c1ccc(Br)cc1 ?
Response: 98

Request: Could you do the same for Cn1ncc(-c2cc3c(N[C@@H](c4ccc5c(n4)OCCO5)C(C)(C)C)ncnc3[nH]2)c1C#N , please?
Response: 82

[P] CC(C)[C@@H](Nc1ncnc2[nH]c(C(=O)N[C@@H]3CCN(C)C3)cc12)c1ccc2c(c1)S(=O)(=O)CCC2
[Q] CNCc1cc(-c2cc3c(N[C@@H](c4ccc5c(c4)S(=O)(=O)CCC5)C(C)C)ncnc3[nH]2)co1
Request: Recorded Activity values differ for P and Q ; which one is higher? Write down the label of the entry you select.
Response: P

---

Test System: Glycogen synthase kinase-3 beta (Homo sapiens) (UniProt P49841)
Sequence (P49841 whole entry, looked up): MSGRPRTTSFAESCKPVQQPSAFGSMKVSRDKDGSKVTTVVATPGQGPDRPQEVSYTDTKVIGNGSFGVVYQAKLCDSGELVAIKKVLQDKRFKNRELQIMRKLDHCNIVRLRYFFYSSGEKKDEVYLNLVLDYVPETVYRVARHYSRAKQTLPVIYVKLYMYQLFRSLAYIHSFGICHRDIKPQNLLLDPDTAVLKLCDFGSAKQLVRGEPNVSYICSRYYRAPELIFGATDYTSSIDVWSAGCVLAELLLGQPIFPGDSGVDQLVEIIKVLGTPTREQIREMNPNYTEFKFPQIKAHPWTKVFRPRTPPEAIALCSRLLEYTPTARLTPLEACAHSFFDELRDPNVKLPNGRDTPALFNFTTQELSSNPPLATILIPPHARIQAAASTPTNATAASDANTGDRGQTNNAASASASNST
Method Description: Enzymatic radiometric [Km ATP] KinaseProfiler LeadHunter assay, kinase: GSK3-beta, catalogue number: 14-306KP The assay has been performed by Eurofins Discovery.
Condition Set: ATP concentration 15.0 uM, Test compound concentration 10.0 uM
Outcome Measure: Activity (%)

Request: Would you kindly share the measured Activity for CC(C)[C@@H](Nc1ncnc2[nH]ccc12)c1ccc2c(c1)S(=O)(=O)CCC2 ?
Response: 107

Request: Could you do the same for C[C@H](C(=O)O)[C@@H](NC(=O)c1ncnc2[nH]ccc12)c1ccc(Br)cc1 , please?
Response: 93

Request: Could you do the same for Cc1nn(C)cc1-c1cc2c(N[C@H](c3ccc4c(c3)S(=O)(=O)CCC4)C(C)C)ncnc2[nH]1 , please?
Response: 96

---

Test System: Vascular endothelial growth factor receptor 2 (Homo sapiens)
Method Description: Enzymatic radiometric [Km ATP] KinaseProfiler LeadHunter assay, kinase: KDR, catalogue number: 14-630KP The assay has been performed by Eurofins Discovery.
Condition Set: ATP concentration 90.0 uM, Test compound concentration 10.0 uM
Outcome Measure: Activity (%)

Request: Would you kindly share the measured Activity for CC(C)[C@@H](Nc1ncnc2[nH]c(C(=O)N[C@@H]3CCN(C)C3)cc12)c1ccc2c(c1)S(=O)(=O)CCC2 ?
Response: 96

Request: Could you do the same for CNC(=O)Cn1cc(-c2cc3c(N[C@@H](c4ccc5c(c4)S(=O)(=O)CCC5)C(C)C)ncnc3[nH]2)cn1 , please?
Response: 91

Request: Could you do the same for COc1ccc([C@@H](Cc2nnn[nH]2)NC(=O)c2ncnc3[nH]ccc23)cc1 , please?
Response: 79

Request: Could you do the same for C[C@H](C(=O)O)[C@@H](NC(=O)c1ncnc2[nH]ccc12)c1ccc(Br)cc1 , please?
Response: 77

Request: Could you do the same for Cc1nn(C)cc1-c1cc2c(N[C@H](c3ccc4c(c3)S(=O)(=O)CCC4)C(C)C)ncnc2[nH]1 , please?
Response: 88

Request: Could you do the same for CC(C)[C@@H](Nc1ncnc2[nH]ccc12)c1ccc2c(c1)S(=O)(=O)CCC2 , please?
Response: 82

Request: Could you do the same for CNCc1cc(-c2cc3c(N[C@@H](c4ccc5c(c4)S(=O)(=O)CCC5)C(C)C)ncnc3[nH]2)co1 , please?
Response: 88

Request: Could you do the same for Cn1ncc(-c2cc3c(N[C@@H](c4ccc5c(n4)OCCO5)C(C)(C)C)ncnc3[nH]2)c1C#N , please?
Response: 83

---

Test System: PI3K p110 beta/p85 alpha (Homo sapiens) (UniProt P27986+P42338)
Sequence (P27986 2-724 limits assumed): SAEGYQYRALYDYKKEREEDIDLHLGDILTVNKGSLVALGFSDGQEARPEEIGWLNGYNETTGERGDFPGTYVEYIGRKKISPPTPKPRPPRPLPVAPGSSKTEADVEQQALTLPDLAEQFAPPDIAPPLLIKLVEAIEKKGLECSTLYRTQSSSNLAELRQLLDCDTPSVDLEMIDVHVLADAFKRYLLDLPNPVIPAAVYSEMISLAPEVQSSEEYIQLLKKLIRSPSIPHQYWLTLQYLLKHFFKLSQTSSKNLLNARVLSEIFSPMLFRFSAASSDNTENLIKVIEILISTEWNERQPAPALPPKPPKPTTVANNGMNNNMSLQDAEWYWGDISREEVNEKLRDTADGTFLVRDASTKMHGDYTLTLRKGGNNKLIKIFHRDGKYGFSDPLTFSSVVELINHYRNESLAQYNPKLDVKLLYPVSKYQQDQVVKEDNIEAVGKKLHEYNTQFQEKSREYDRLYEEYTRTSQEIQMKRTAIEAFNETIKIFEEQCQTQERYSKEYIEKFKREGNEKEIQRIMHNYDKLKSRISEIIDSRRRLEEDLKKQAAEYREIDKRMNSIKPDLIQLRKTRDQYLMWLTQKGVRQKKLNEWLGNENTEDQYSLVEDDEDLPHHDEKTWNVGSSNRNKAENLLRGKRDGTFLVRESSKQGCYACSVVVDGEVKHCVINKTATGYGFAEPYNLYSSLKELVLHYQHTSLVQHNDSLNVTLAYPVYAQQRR
Sequence (P42338 whole entry partner): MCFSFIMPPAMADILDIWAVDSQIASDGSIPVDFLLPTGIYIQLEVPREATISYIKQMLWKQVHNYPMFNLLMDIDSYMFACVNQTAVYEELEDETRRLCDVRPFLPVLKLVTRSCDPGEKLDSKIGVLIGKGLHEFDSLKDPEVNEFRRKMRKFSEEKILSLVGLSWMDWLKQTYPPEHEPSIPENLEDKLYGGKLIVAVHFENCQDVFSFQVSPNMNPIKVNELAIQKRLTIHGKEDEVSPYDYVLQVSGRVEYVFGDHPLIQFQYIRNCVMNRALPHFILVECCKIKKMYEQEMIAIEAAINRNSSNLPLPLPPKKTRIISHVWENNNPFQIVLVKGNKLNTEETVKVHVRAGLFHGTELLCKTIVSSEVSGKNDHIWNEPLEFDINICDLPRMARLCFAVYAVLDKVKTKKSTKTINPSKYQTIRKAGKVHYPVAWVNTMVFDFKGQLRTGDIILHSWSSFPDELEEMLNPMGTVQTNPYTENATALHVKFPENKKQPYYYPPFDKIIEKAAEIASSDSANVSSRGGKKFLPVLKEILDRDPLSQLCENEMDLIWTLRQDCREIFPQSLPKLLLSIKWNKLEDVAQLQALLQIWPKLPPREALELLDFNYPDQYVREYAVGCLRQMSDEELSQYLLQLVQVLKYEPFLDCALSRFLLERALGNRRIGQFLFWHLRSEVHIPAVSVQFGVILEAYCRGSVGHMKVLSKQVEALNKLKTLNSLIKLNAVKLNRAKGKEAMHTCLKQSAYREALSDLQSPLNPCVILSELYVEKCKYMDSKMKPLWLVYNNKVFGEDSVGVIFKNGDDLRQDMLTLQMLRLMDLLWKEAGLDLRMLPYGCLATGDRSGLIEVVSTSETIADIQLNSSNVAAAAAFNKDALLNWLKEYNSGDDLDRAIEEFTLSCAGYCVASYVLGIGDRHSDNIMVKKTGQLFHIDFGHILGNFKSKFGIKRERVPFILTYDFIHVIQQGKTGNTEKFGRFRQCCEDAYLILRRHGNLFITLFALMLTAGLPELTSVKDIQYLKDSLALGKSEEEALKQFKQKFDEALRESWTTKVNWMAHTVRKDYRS
Method Description: Enzymatic radiometric [Km ATP] KinaseProfiler LeadHunter assay, kinase: PI3 Kinase (p110-beta/p85-alpha), catalogue number: 14-603KP The assay has been performed by Eurofins Discovery.
Assay type: protein-complex assay
Condition Set: ATP concentration 200.0 uM, Test compound concentration 10.0 uM
Outcome Measure: Activity (%)

Request: Would you kindly share the measured Activity for COc1ccc([C@@H](Cc2nnn[nH]2)NC(=O)c2ncnc3[nH]ccc23)cc1 ?
Response: 102

Request: Could you do the same for C[C@H](C(=O)O)[C@@H](NC(=O)c1ncnc2[nH]ccc12)c1ccc(Br)cc1 , please?
Response: 97

Request: Could you do the same for CC(C)[C@@H](Nc1ncnc2[nH]c(C(=O)N[C@@H]3CCN(C)C3)cc12)c1ccc2c(c1)S(=O)(=O)CCC2 , please?
Response: 99

Request: Could you do the same for Cc1nn(C)cc1-c1cc2c(N[C@H](c3ccc4c(c3)S(=O)(=O)CCC4)C(C)C)ncnc2[nH]1 , please?
Response: 105

Request: Could you do the same for CNC(=O)Cn1cc(-c2cc3c(N[C@@H](c4ccc5c(c4)S(=O)(=O)CCC5)C(C)C)ncnc3[nH]2)cn1 , please?
Response: 100

Request: Could you do the same for Cn1ncc(-c2cc3c(N[C@@H](c4ccc5c(n4)OCCO5)C(C)(C)C)ncnc3[nH]2)c1C#N , please?
Response: 91

Request: Could you do the same for CC(C)[C@H](Nc1ncnc2[nH]c(-c3cnn(C)c3C#N)cc12)c1ccc2c(n1)OCCO2 , please?
Response: 86

Request: Could you do the same for CC(C)[C@H](Nc1ncnc2[nH]ccc12)c1ccc2c(c1)S(=O)(=O)CCC2 , please?
Response: 100

Request: Could you do the same for COc1ccc([C@H](Cc2nnn[nH]2)NC(=O)c2ncnc3[nH]ccc23)cc1 , please?
Response: 97

Request: Could you do the same for CNCc1cc(-c2cc3c(N[C@@H](c4ccc5c(c4)S(=O)(=O)CCC5)C(C)C)ncnc3[nH]2)co1 , please?
Response: 92

Request: Could you do the same for CC(C)[C@@H](Nc1ncnc2[nH]ccc12)c1ccc2c(c1)S(=O)(=O)CCC2 , please?
Response: 101

---

Test System: Serine/threonine-protein kinase 10 (Homo sapiens) (UniProt O94804)
Sequence (O94804 whole entry, looked up): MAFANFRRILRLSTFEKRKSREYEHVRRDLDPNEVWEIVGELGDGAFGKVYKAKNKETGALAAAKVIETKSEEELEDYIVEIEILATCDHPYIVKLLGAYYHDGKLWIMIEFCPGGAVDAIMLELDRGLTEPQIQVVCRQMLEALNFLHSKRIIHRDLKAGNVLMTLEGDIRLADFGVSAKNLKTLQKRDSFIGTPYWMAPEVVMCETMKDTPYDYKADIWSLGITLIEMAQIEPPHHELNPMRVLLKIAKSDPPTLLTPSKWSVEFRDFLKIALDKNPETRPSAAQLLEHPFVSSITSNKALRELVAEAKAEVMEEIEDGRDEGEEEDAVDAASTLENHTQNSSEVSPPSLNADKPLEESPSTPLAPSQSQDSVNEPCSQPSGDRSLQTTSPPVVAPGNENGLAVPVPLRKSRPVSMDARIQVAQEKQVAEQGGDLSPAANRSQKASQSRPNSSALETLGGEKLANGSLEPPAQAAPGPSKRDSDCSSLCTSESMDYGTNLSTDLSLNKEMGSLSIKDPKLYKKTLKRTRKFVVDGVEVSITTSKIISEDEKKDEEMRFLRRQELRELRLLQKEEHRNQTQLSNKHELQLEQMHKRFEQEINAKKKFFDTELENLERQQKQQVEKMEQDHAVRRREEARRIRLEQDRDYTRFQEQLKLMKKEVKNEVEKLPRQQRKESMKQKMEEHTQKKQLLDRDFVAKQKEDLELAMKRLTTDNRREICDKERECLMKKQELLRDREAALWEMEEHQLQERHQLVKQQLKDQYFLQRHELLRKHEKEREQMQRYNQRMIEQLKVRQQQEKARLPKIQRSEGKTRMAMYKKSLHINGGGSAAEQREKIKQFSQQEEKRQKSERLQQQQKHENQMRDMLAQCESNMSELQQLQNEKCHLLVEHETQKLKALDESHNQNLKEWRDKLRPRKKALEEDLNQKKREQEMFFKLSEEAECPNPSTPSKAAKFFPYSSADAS
Method Description: Enzymatic radiometric [Km ATP] KinaseProfiler LeadHunter assay, kinase: LOK, catalogue number: 14-686KP The assay has been performed by Eurofins Discovery.
Condition Set: ATP concentration 120.0 uM, Test compound concentration 10.0 uM
Outcome Measure: Activity (%)

[a] COc1ccc([C@H](Cc2nnn[nH]2)NC(=O)c2ncnc3[nH]ccc23)cc1
[b] CC(C)[C@H](Nc1ncnc2[nH]c(-c3cnn(C)c3C#N)cc12)c1ccc2c(n1)OCCO2
Request: Recorded Activity values differ for a and b ; which one is higher? Write down the label of the entry you select.
Response: a
(a: 102%, b: 45%)

---

Test System: Epidermal growth factor receptor (Homo sapiens)
Method Description: Enzymatic radiometric [Km ATP] KinaseProfiler LeadHunter assay, kinase: EGFR, catalogue number: 14-531KP The assay has been performed by Eurofins Discovery.
Condition Set: ATP concentration 10.0 uM, Test compound concentration 10.0 uM
Outcome Measure: Activity (%)

Request: Would you kindly share the measured Activity for CNC(=O)Cn1cc(-c2cc3c(N[C@@H](c4ccc5c(c4)S(=O)(=O)CCC5)C(C)C)ncnc3[nH]2)cn1 ?
Response: 98

Request: Could you do the same for CC(C)[C@@H](Nc1ncnc2[nH]ccc12)c1ccc2c(c1)S(=O)(=O)CCC2 , please?
Response: 102

Request: Could you do the same for Cc1nn(C)cc1-c1cc2c(N[C@H](c3ccc4c(c3)S(=O)(=O)CCC4)C(C)C)ncnc2[nH]1 , please?
Response: 87

---

Test System: PI3-kinase p110-alpha/p85-alpha (Homo sapiens) (UniProt P27986+P42336)
Method Description: Enzymatic radiometric [Km ATP] KinaseProfiler LeadHunter assay, kinase: PI3 Kinase (p110-alpha/p85-alpha), catalogue number: 14-602KP The assay has been performed by Eurofins Discovery.
Type: protein-complex assay
Condition Set: ATP concentration 200.0 uM, Test compound concentration 10.0 uM
Outcome Measure: Activity (%)

Request: Item: Cc1nn(C)cc1-c1cc2c(N[C@H](c3ccc4c(c3)S(=O)(=O)CCC4)C(C)C)ncnc2[nH]1 Test system: PI3-kinase p110-alpha/p85-alpha (Homo sapiens) (UniProt P27986+P42336) Read-out: Activity Value: ?
Response: 102

Request: Could you do the same for CNCc1cc(-c2cc3c(N[C@@H](c4ccc5c(c4)S(=O)(=O)CCC5)C(C)C)ncnc3[nH]2)co1 , please?
Response: 99

Request: Could you do the same for CC(C)[C@H](Nc1ncnc2[nH]ccc12)c1ccc2c(c1)S(=O)(=O)CCC2 , please?
Response: 94

Request: Could you do the same for CC(C)[C@H](Nc1ncnc2[nH]c(-c3cnn(C)c3C#N)cc12)c1ccc2c(n1)OCCO2 , please?
Response: 70

Request: Could you do the same for COc1ccc([C@H](Cc2nnn[nH]2)NC(=O)c2ncnc3[nH]ccc23)cc1 , please?
Response: 99
